test.details: ATG_PXRE_CIS: Attagene CIS-FACTORIAL HepG2 Assay for human Pregnane X Receptor Element (PXRE) (AID 2282957)
condition.set: HepG2 Attagene CIS-FACTORIAL PXRE reporter, mRNA; actives raise or lower the signal
Activity calls are given as the source filed them. How the source made its calls: active means hit-call score of the fitted dose curve at least 0.9, where 1 is the maximum; inactive means score below 0.9.
Classes used: active, inactive

>  <molecule>
NNCCO

>  <label>
inactive

$$$$
>  <molecule>
O=S(=O)(Oc1ccc(Cl)cc1)c1ccc(Cl)cc1

>  <label>
active

$$$$
>  <molecule>
N#Cc1ccccc1Cl

>  <label>
active

$$$$
>  <molecule>
Clc1cccc(Cl)c1

>  <label>
inactive

$$$$
>  <molecule>
CCCCOC(C)=O

>  <label>
inactive

$$$$
>  <molecule>
O=C(NC(=O)c1c(F)cccc1F)Nc1cc(Cl)c(F)c(Cl)c1F

>  <label>
active

$$$$
>  <molecule>
C=CC(=O)[O][Sn]([CH2]CCC)([CH2]CCC)[CH2]CCC

>  <label>
active

$$$$
>  <molecule>
O=C(Nc1ccc(Br)cc1)c1cc(Br)cc(Br)c1O

>  <label>
active

$$$$
>  <molecule>
O=C(O)c1cc(I)cc(I)c1I

>  <label>
active

$$$$
>  <molecule>
C1CN2CCN1CC2

>  <label>
inactive

$$$$
>  <molecule>
CC(=Cc1ccccc1)[N+](=O)[O-]

>  <label>
active

$$$$
>  <molecule>
CC(C)(C1CCC(O)CC1)C1CCC(O)CC1 (centres undefined)

>  <label>
active

$$$$
>  <molecule>
COC(=O)Nc1cccc(OC(=O)Nc2cccc(C)c2)c1

>  <label>
inactive

$$$$
>  <molecule>
CC(C)(c1ccccc1)c1cc(-n2nc3ccccc3n2)c(O)c(C(C)(C)c2ccccc2)c1

>  <label>
active

$$$$

----------
test.details: BSK_3C_Vis: BioMAP Diversity Plus: 3C Assay for Morphology Visualization (AID 2283025);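 further: fitted both ways so gain or loss versus DMSO counts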
condition.set: primary human endothelial cells (HUVEC)
Calls of active or inactive are those of the source. Rule for the calls: active = hit-call score of the fitted dose curve at least 0.9, where 1 is the maximum; inactive = score below 0.9.
Classes used: class 1 (active), class 0 (inactive)

>  <molecule>
NC(=O)CCl

>  <label>
class 0

$$$$
>  <molecule>
O=C(N[C@H]1CN2CCC1CC2)c1ccc2c(c1)OCCO2

>  <label>
class 0

$$$$
>  <molecule>
O=C(CCl)NCO

>  <label>
class 0

$$$$
>  <molecule>
c1ccc(-c2cccc(-c3ccccc3)c2)cc1

>  <label>
class 1

$$$$
>  <molecule>
CC(C)O.CC(C)O.OCCN(CCO)CCO.OCCN(CCO)CCO.[Ti]

>  <label>
class 0

$$$$
>  <molecule>
COCC(=O)N(c1c(C)cccc1C)[C@H](C)C(=O)OC

>  <label>
class 0

$$$$
>  <molecule>
Oc1cc(Cl)c(Cl)cc1Cl

>  <label>
class 1

$$$$
>  <molecule>
CCCCCCCCCCCCc1cccc(S(=O)(=O)O)c1

>  <label>
class 0

$$$$
>  <molecule>
[Cl][Sn]([c]1ccccc1)([c]1ccccc1)[c]1ccccc1

>  <label>
class 1

$$$$
>  <molecule>
CCCCCCCCCCCCN(C)C

>  <label>
class 0

$$$$
>  <molecule>
Cc1c([N+](=O)[O-])c(C)c([N+](=O)[O-])c(C(C)(C)C)c1[N+](=O)[O-]

>  <label>
class 1

$$$$
>  <molecule>
O=c1oc2ccccc2c(O)c1C(CC(O)c1ccc(-c2ccc(Br)cc2)cc1)c1ccccc1 (configuration not stated)

>  <label>
class 1

$$$$

----------
assay.target: human Retinoid X Receptor beta (RXRb), RXRB (gene 6257) (UniProt P28702)
Sequence (P28702 whole entry, looked up): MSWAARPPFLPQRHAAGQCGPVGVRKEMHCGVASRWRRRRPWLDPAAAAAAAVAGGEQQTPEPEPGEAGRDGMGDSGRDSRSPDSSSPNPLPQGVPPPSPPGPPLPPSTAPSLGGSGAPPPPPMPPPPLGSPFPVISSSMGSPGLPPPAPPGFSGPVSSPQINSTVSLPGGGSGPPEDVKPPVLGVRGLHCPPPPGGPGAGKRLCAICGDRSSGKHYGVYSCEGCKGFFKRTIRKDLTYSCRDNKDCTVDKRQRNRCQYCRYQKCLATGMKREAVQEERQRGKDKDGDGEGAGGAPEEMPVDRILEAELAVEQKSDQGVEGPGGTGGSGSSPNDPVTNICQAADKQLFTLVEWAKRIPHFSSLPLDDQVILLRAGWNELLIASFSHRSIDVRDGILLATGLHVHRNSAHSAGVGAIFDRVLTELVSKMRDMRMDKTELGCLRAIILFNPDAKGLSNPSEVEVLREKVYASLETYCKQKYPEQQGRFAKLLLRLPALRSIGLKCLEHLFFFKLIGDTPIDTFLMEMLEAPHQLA
test.details: ATG_RXRb_TRANS: Attagene TRANS-FACTORIAL HepG2 Assay for human Retinoid X Receptor beta (RXRb) (AID 2283013)
Results filed as inconclusive are left out. Calls of active or inactive are those of the source. Rule for the calls: active = hit-call score of the fitted dose curve at least 0.9, where 1 is the maximum; inconclusive = response in the unintended direction; inactive = score below 0.9.
Classes used: active, inactive

>  <cpd.smiles>
CCCCN(CCCC)C(=S)[S-].CCCCN(CCCC)C(=S)[S-].[Ni+2]

>  <label>
inactive

$$$$
>  <cpd.smiles>
O=C1C=CC(=O)c2ccccc21

>  <label>
inactive

$$$$
>  <cpd.smiles>
Nc1ccc(-c2ccccc2)cc1

>  <label>
inactive

$$$$
>  <cpd.smiles>
CC(C)(C)c1cc([N+](=O)[O-])cc(C(C)(C)C)c1O

>  <label>
active

$$$$
>  <cpd.smiles>
Clc1ccc(C(Cl)(Cl)Cl)cn1

>  <label>
inactive

$$$$
>  <cpd.smiles>
O=[N+]([O-])c1cc([As](=O)(O)O)ccc1O

>  <label>
inactive

$$$$
>  <cpd.smiles>
Cc1cc(Cl)ccc1OCCCC(=O)O

>  <label>
active

$$$$

----------
assay.target: Agonist Androgen Response Element (ARE), AR (gene 367)
test.details: OT_AR_ARELUC_AG_1440: Odyssey Thera (OT) 24-hour CHO-K1 Luciferase Assay for Agonist Androgen Response Element (ARE) (AID 2283379)
Records with an inconclusive call do not appear. Active and inactive are the calls of the source. How the source made its calls: active means hit-call score of the fitted dose curve at least 0.9, where 1 is the maximum; inconclusive means response in the unintended direction; inactive means score below 0.9.
Classes used: active, inactive

>  <compound>
O=S1OC[C@@H]2[C@H](CO1)[C@]1(Cl)C(Cl)=C(Cl)[C@@]2(Cl)C1(Cl)Cl (stereo not given in full)

>  <label>
inactive

$$$$
>  <compound>
CC(=Cc1ccccc1)[N+](=O)[O-]

>  <label>
inactive

$$$$
>  <compound>
Cc1cc(Cl)ccc1OCCCC(=O)O

>  <label>
inactive

$$$$
>  <compound>
N#CCC#N

>  <label>
inactive

$$$$
>  <compound>
O=C(O)COc1cc(Cl)c(Cl)cc1Cl

>  <label>
inactive

$$$$
>  <compound>
C=CC(Cl)CCl (stereo not given)

>  <label>
inactive

$$$$
>  <compound>
O=C(CCl)Nc1ccccc1

>  <label>
inactive

$$$$
>  <compound>
O=[N+]([O-])c1ccc(Cl)c([N+](=O)[O-])c1

>  <label>
inactive

$$$$
>  <compound>
COCCl

>  <label>
active

$$$$
>  <compound>
O=C1c2ccccc2C(=O)C1C(=O)C(c1ccccc1)c1ccc(Cl)cc1 (stereo not given)

>  <label>
inactive

$$$$

----------
assay.target: Nucleoli Translocation, AR (gene 367)
test.details: UPITT_HCI_U2OS_AR_TIF2_Nucleoli_Agonist: University of Pittsburgh U2OS Androgen Receptor-Transcriptional Intermediary Factor 2 (AR-TIF2) Agonism High Content Imaging Assay for Nucleoli Translocation (AID 2283998)
Inconclusive results are not listed. The source made the active and inactive calls. The calls were made as follows: active = hit-call score of the fitted dose curve at least 0.9, where 1 is the maximum; inconclusive = response in the unintended direction; inactive = score below 0.9.
Classes used: class 1 = active, class 0 = inactive

>  <compound>
CNC(=O)O/N=C/C(C)(C)S(C)(=O)=O

>  <label>
class 0

$$$$
>  <compound>
CCOP(=S)(OCC)OP(=S)(OCC)OCC

>  <label>
class 0

$$$$
>  <compound>
O=C(N[C@H]1CN2CCC1CC2)c1ccc2c(c1)OCCO2

>  <label>
class 0

$$$$
>  <compound>
CC(=Cc1ccccc1)[N+](=O)[O-]

>  <label>
class 0

$$$$
>  <compound>
O=C(NC(=O)c1c(F)cccc1F)Nc1cc(Cl)c(OC(F)(F)C(F)C(F)(F)F)cc1Cl (stereo not drawn)

>  <label>
class 0

$$$$
>  <compound>
OC(Cc1ccccc1Cl)(Cn1[nH]cnc1=S)C1(Cl)CC1 (stereo not drawn)

>  <label>
class 0

$$$$
>  <compound>
O=C(CCl)Nc1ccccc1

>  <label>
class 0

$$$$
>  <compound>
O=[N+]([O-])c1ccc(Cl)c([N+](=O)[O-])c1

>  <label>
class 1

$$$$

----------
assay.target: Transcription factor E2F1 (Homo sapiens) (UniProt Q01094)
Sequence (Q01094 whole entry, looked up): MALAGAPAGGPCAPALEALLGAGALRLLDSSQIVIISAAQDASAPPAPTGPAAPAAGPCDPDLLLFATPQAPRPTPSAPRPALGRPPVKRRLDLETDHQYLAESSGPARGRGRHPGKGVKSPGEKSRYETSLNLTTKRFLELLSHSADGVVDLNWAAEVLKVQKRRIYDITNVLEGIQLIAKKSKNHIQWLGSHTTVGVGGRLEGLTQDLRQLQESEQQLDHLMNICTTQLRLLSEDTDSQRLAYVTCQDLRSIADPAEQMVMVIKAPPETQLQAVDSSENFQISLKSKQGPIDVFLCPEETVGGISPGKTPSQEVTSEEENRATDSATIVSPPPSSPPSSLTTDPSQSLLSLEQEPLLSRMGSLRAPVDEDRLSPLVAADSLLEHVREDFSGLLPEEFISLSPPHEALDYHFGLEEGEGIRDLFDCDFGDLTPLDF
test.details: ATG_E2F_CIS: Attagene CIS-FACTORIAL HepG2 Assay for human E2F Transcription Factor 1 (AID 2282935)
condition.set: HepG2 Attagene cis-reporter, E2F reporter RNA transcripts; actives raise or lower the signal
Activity calls are given as the source filed them. How the source made its calls: active means hit-call score of the fitted dose curve at least 0.9, where 1 is the maximum; inactive means score below 0.9.
Classes used: active, inactive

>  <compound>
CCCCS(=O)(=O)Cl

>  <label>
inactive

$$$$
>  <compound>
CCN(CCO)CCO

>  <label>
inactive

$$$$
>  <compound>
O=C(NC(=O)c1c(F)cccc1F)Nc1cc(Cl)c(Oc2ncc(C(F)(F)F)cc2Cl)c(Cl)c1

>  <label>
inactive

$$$$
>  <compound>
C=CCN=C=S

>  <label>
inactive

$$$$
>  <compound>
O=CCCl

>  <label>
inactive

$$$$
>  <compound>
C[C@]12CC[C@@H](O)C[C@@H]1CC[C@@H]1[C@@H]2CC[C@]2(C)C(=O)CC[C@@H]12

>  <label>
inactive

$$$$
>  <compound>
CC(O)(CS(=O)(=O)c1ccc(F)cc1)C(=O)Nc1ccc(C#N)c(C(F)(F)F)c1 (stereo not drawn)

>  <label>
inactive

$$$$
>  <compound>
c1ccc2c(c1)Oc1ccccc1O2

>  <label>
inactive

$$$$
>  <compound>
Cc1cccc(N=Nc2ccc(N(C)C)cc2)c1

>  <label>
inactive

$$$$
>  <compound>
O=C(NC(=O)c1c(F)cccc1F)Nc1cc(Cl)c(OC(F)(F)C(F)C(F)(F)F)cc1Cl (stereo not drawn)

>  <label>
inactive

$$$$
>  <compound>
CCCCCCCCCCCCBr

>  <label>
inactive

$$$$
>  <compound>
CC(C)(C#N)N=NC(C)(C)C#N

>  <label>
inactive

$$$$
>  <compound>
CC(C)(c1ccc(O)c(-c2ccccc2)c1)c1ccc(O)c(-c2ccccc2)c1

>  <label>
inactive

$$$$
>  <compound>
CCCCCCCCCCBr

>  <label>
inactive

$$$$
>  <compound>
CCOC(=O)CC(=O)CCl

>  <label>
inactive

$$$$
>  <compound>
COC(=O)Nc1cccc(OC(=O)Nc2cccc(C)c2)c1

>  <label>
inactive

$$$$
>  <compound>
C=CC(F)(C(F)(F)F)C(F)(F)C(F)(F)F (stereo not drawn)

>  <label>
inactive

$$$$
>  <compound>
Cc1ccccc1OP(=O)(Oc1ccccc1C)Oc1ccccc1C

>  <label>
active

$$$$
>  <compound>
CC1CC(=O)O1 (stereo not drawn)

>  <label>
inactive

$$$$
>  <compound>
O=NN1CCCCCC1

>  <label>
inactive

$$$$
>  <compound>
O=[N+]([O-])c1ccccc1O

>  <label>
inactive

$$$$
>  <compound>
CCOP(=S)(OCC)O/N=C(\C#N)c1ccccc1

>  <label>
inactive

$$$$
>  <compound>
CNC(=O)CSP(=O)(OC)OC

>  <label>
inactive

$$$$
>  <compound>
O=C(O)CC(O)(CC(=O)O)C(=O)O

>  <label>
inactive

$$$$
>  <compound>
Oc1ccc(Cc2ccc(O)cc2)cc1

>  <label>
inactive

$$$$
>  <compound>
O=S(=O)(c1ccc(Cl)cc1)c1cc(Cl)c(Cl)cc1Cl

>  <label>
inactive

$$$$
>  <compound>
CS(=O)(=O)c1ccc(C(=O)C2C(=O)CCCC2=O)c(Cl)c1COCC(F)(F)F

>  <label>
inactive

$$$$
>  <compound>
C[As+](C)(C)CC(=O)[O-]

>  <label>
inactive

$$$$
>  <compound>
BrCc1ccc(Br)cc1

>  <label>
inactive

$$$$
>  <compound>
C#C[C@]1(O)CC[C@H]2[C@@H]3CCC4=CC(=O)CC[C@]4(C)[C@H]3CC[C@@]21C

>  <label>
inactive

$$$$
>  <compound>
CCOC(=O)CCN(SN(C)C(=O)Oc1cccc2c1OC(C)(C)C2)C(C)C

>  <label>
inactive

$$$$
>  <compound>
Cc1cc(Cl)ccc1OC(C)C(=O)O (stereo not drawn)

>  <label>
inactive

$$$$
>  <compound>
CCCCCCCCBr

>  <label>
inactive

$$$$
>  <compound>
OC(Cc1ccccc1Cl)(Cn1cncn1)C1(Cl)CC1 (stereo not drawn)

>  <label>
inactive

$$$$
>  <compound>
CC(C)N(C(=O)CCl)c1ccccc1

>  <label>
active

$$$$
>  <compound>
OCCCCO

>  <label>
inactive

$$$$
>  <compound>
NC(=O)CCl

>  <label>
inactive

$$$$
>  <compound>
Clc1cccc(Cl)c1Cl

>  <label>
inactive

$$$$
>  <compound>
Nc1ncn[nH]1

>  <label>
inactive

$$$$
>  <compound>
CCCCN(CCCC)C(=S)[S-].CCCCN(CCCC)C(=S)[S-].[Ni+2]

>  <label>
inactive

$$$$
>  <compound>
C=C(C)C(=O)OCCCCOC(=O)C(=C)C

>  <label>
inactive

$$$$
>  <compound>
CC(C)(C)c1ccccc1O

>  <label>
inactive

$$$$
>  <compound>
Cc1cc(Cl)ccc1OCCCC(=O)O

>  <label>
inactive

$$$$
>  <compound>
CCC[CH2][Sn]([CH2]CCC)([CH2]CCC)[CH2]CCC

>  <label>
inactive

$$$$
>  <compound>
CCCSP(=S)(OCC)Oc1ccc(Cl)cc1Cl (stereo not drawn)

>  <label>
inactive

$$$$
>  <compound>
Oc1cccc(-c2ccccc2)c1

>  <label>
inactive

$$$$
>  <compound>
Oc1cc(Cl)c(Cl)cc1Cl

>  <label>
inactive

$$$$
>  <compound>
CC[N+](CC)(CC)CC

>  <label>
inactive

$$$$
>  <compound>
N#Cc1ccccc1Cl

>  <label>
inactive

$$$$
>  <compound>
CC(C)=CC1C(C(=O)OCc2cccc(Oc3ccccc3)c2)C1(C)C (stereo not drawn)

>  <label>
inactive

$$$$
>  <compound>
Clc1cccc(Cl)c1

>  <label>
inactive

$$$$
>  <compound>
Cc1cc(Cl)ccc1N

>  <label>
inactive

$$$$
>  <compound>
OC(c1ccc(Cl)cc1)(c1ccc(Cl)cc1)c1cccnc1

>  <label>
inactive

$$$$
>  <compound>
N#Cc1ccc(Cl)cc1

>  <label>
inactive

$$$$
>  <compound>
CC(C)[C@H](C(=O)OC(C#N)c1cccc(Oc2ccccc2)c1)c1ccc(OC(F)F)cc1 (stereo partly drawn)

>  <label>
inactive

$$$$
>  <compound>
C1CCC(C2CCCCC2)CC1

>  <label>
inactive

$$$$
>  <compound>
O=C(Nc1ccc(Br)cc1)c1cc(Br)cc(Br)c1O

>  <label>
inactive

$$$$
>  <compound>
COc1ccccc1N

>  <label>
inactive

$$$$
